target: CBL-B (Homo sapiens, UniProt Q13191); construct: GST; test: CBL-B TR-FRET IC50 screening (E1/E2 ubiquitination, Biotin-Ubiquitin, Anti GST-Tb donor / Streptavidin-d2 acceptor); assay type: biochemical; settings: CBL-B 10 nM final; 11-point titration from 100 uM; binned A-F; read-out: CBL-B TR-FRET activity IC50
Sequence (Q13191 whole entry): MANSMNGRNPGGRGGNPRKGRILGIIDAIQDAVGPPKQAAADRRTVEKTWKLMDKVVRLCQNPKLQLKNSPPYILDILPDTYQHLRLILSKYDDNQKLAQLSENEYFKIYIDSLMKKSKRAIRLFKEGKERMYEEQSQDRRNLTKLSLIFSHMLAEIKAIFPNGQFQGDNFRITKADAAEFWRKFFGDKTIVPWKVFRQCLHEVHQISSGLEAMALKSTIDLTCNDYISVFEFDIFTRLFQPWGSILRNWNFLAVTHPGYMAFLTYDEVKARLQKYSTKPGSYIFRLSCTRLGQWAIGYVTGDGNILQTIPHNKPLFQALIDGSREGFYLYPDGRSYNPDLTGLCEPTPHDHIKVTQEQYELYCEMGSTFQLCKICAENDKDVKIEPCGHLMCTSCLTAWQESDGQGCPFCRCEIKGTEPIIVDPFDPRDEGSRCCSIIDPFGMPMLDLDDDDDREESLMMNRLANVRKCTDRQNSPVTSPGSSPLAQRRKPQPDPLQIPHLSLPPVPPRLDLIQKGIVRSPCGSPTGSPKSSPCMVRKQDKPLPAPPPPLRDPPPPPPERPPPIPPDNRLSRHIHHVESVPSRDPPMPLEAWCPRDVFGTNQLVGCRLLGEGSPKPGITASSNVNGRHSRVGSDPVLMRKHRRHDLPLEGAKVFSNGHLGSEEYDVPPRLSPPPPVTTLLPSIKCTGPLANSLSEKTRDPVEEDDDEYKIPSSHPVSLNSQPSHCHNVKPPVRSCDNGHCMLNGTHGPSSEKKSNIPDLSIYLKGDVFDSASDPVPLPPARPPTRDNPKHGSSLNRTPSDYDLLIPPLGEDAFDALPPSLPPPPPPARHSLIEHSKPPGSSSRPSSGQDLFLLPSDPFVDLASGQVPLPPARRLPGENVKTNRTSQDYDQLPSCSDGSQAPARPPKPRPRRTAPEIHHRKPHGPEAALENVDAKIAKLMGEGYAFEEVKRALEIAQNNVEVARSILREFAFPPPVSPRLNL
pIC50: −log10 of the molar value.
Measured pIC50 by item

Here's what some known entries look like.
q: Record request: pIC50 value, item CC1CC(c2cccc(-n3cc4c(C(F)(F)F)cc(C#N)cn4c3=O)c2)(c2nncn2C)C1 (stereo not shown)
a: > 7.00

q: Record request: pIC50 value, item COCCOCc1cc(C(F)(F)F)c2cn(-c3cccc(C4(Cc5nncn5C)COC4)c3)c(=O)n2c1
a: > 7.00

q: Record request: pIC50 value, item Cn1cnnc1CC1(c2cccc(-n3cc4c(Cl)cc(CN5CC[C@H](F)C5)cn4c3=O)c2)COC1
a: > 7.00

Others:
q: Record request: pIC50 value, item C[C@@H](Cc1nncn1C)c1cccc(-n2cc3c(C(F)(F)F)cccn3c2=O)c1
a: 5.00 to 5.52
